Known normalised viability of a selection of compounds
tested on: BT-474; test: normalised viability (% of control), CellTiter-Blue; higher = more viable cells (100 = DMSO, 0 = benzethonium chloride kill control); settings: incubation time: 72 h

{"COMPOUND": "Cn1cnc2c(F)c(Nc3ccc(Br)cc3F)c(C(=O)NOCCO)cc21 [MEK-162] (0.1 nM)", "SUBJECT OF TEST": "BT-474", "normalised viability / %": 122}
{"COMPOUND": "COc1ncc(-c2ccc3nccc(-c4ccnnc4)c3c2)cc1NS(=O)(=O)c1ccc(F)cc1F (0.1 nM)", "SUBJECT OF TEST": "BT-474", "normalised viability / %": 115}
{"COMPOUND": "C[C@@H]1C=C2C(=O)O[C@@H]3CC[C@H](C1)[C@]23O [Galiellalactone] (5 nM)", "SUBJECT OF TEST": "BT-474", "normalised viability / %": 105}
{"COMPOUND": "O=P(O)(NCCCl)NCCCl [Ifosfamide mustard] (1 nM)", "SUBJECT OF TEST": "BT-474", "normalised viability / %": 113}
{"COMPOUND": "O=c1[nH]cc(F)c(=O)[nH]1 [Fluorouracil] (1 nM)", "SUBJECT OF TEST": "BT-474", "normalised viability / %": 107}
{"COMPOUND": "O=c1[nH]c(=O)n([C@H]2C[C@H](O)[C@@H](CO)O2)cc1F [Floxuridine] (1 nM)", "SUBJECT OF TEST": "BT-474", "normalised viability / %": 91.2}
{"COMPOUND": "CC(C)C[C@H](NC(=O)[C@H](Cc1ccccc1)NC(=O)c1cnccn1)B(O)O [Bortezomib] (0.1 nM)", "SUBJECT OF TEST": "BT-474", "normalised viability / %": 75.1}

* * *

Known normalised viability of a selection of compounds
tested on: MDA-MB-231; test: normalised viability (% of control), CellTiter-Blue; higher = more viable cells (about 100 = DMSO control); settings: 10000 nM; incubation time: 72 h

{"COMPOUND": "CS(=O)(=O)OCCCCOS(C)(=O)=O", "DISPLAY UNIT": "%", "normalised viability": 95.4}
{"COMPOUND": "COC(=O)C[C@](O)(CCCC(C)(C)O)C(=O)O[C@@H]1C(OC)=C[C@]23CCCN2CCc2cc4c(cc2[C@H]13)OCO4 [Omacetaxine mepesuccinate]", "DISPLAY UNIT": "%", "normalised viability": 3.89}
{"COMPOUND": "CN1CCN(c2ccc3nc(-c4c(N)c5c(F)cccc5[nH]c4=O)[nH]c3c2)CC1", "DISPLAY UNIT": "%", "normalised viability": 86.4}
{"COMPOUND": "O=C(c1ccc(OCCN2CCCCC2)cc1)c1c(-c2ccc(O)cc2)sc2cc(O)ccc12", "DISPLAY UNIT": "%", "normalised viability": 102}
{"COMPOUND": "COC1=CC(c2cc3ccccc3[nH]2)=N/C1=C\\c1[nH]c(C)cc1C", "DISPLAY UNIT": "%", "normalised viability": 3.22}

* * *

system: MCF-10A; test: drug sensitivity score (DSS), CellTox Green (DSS (AUC-based score)); higher = stronger drug effect (viability inhibition or cytotoxicity); extreme values may be limits of the assay; settings: incubation time: 72 h
Known drug sensitivity score of a selection of compounds

{"SMILES INPUT": "C[C@@]1(C(=O)Nc2ccc(F)nc2)CCCN1c1nc(Nc2cc(C3CC3)n[nH]2)c2cccn2n1", "SUBJECT OF TEST": "MCF-10A", "drug sensitivity score": 6.69}
{"SMILES INPUT": "CS(=O)(=O)CCNCc1ccc(-c2ccc3ncnc(Nc4ccc(OCc5cccc(F)c5)c(Cl)c4)c3c2)o1", "SUBJECT OF TEST": "MCF-10A", "drug sensitivity score": 2.1}
{"SMILES INPUT": "CS(=O)(=O)OCCCCOS(C)(=O)=O", "SUBJECT OF TEST": "MCF-10A", "drug sensitivity score": 0}
{"SMILES INPUT": "CCCC(CCC)C(=O)O", "SUBJECT OF TEST": "MCF-10A", "drug sensitivity score": 0}
{"SMILES INPUT": "O=c1[nH]c(=O)n([C@H]2C[C@H](O)[C@@H](CO)O2)cc1F", "SUBJECT OF TEST": "MCF-10A", "drug sensitivity score": 0}
{"SMILES INPUT": "CC(C)(C)c1cc(NC(=O)Nc2ccc(-c3cn4c(n3)sc3cc(OCCN5CCOCC5)ccc34)cc2)no1", "SUBJECT OF TEST": "MCF-10A", "drug sensitivity score": 0}

* * *

Known drug sensitivity score of a selection of molecules
test system: SK-BR-3; assay: drug sensitivity score (DSS), CellTiter-Glo (DSS (AUC-based score)); higher = stronger drug effect (viability inhibition or cytotoxicity); extreme values may be limits of the assay; settings: incubation time: 72 h
ASSAY METRIC: drug sensitivity score

{"SMILES INPUT": "CC(=O)O[C@H]1C(=O)[C@@]2(C)[C@H]([C@H](OC(=O)c3ccccc3)[C@]3(O)C[C@H](OC(=O)[C@H](O)[C@@H](NC(=O)c4ccccc4)c4ccccc4)C(C)=C1C3(C)C)[C@]1(OC(C)=O)CO[C@@H]1C[C@@H]2O", "ASSAY METRIC": "drug sensitivity score", "RECORDED MEASUREMENT": 33.6}
{"SMILES INPUT": "Cn1cnc2c(F)c(Nc3ccc(Br)cc3F)c(C(=O)NOCCO)cc21", "ASSAY METRIC": "drug sensitivity score", "RECORDED MEASUREMENT": 0}
{"SMILES INPUT": "C[C@@H]1C=C2C(=O)O[C@@H]3CC[C@H](C1)[C@]23O", "ASSAY METRIC": "drug sensitivity score", "RECORDED MEASUREMENT": 0}
{"SMILES INPUT": "CCOc1cc2ncc(C#N)c(Nc3ccc(OCc4ccccn4)c(Cl)c3)c2cc1NC(=O)/C=C/CN(C)C", "ASSAY METRIC": "drug sensitivity score", "RECORDED MEASUREMENT": 24.8}
{"SMILES INPUT": "Cn1c(=O)c(F)c(Nc2ccc(I)cc2F)c2c(=O)n(C[C@@H](O)CO)cnc21", "ASSAY METRIC": "drug sensitivity score", "RECORDED MEASUREMENT": 0}
{"SMILES INPUT": "Nc1nccc(-c2c(-c3ccc(F)cc3)ncn2C2CCCCC2)n1", "ASSAY METRIC": "drug sensitivity score", "RECORDED MEASUREMENT": 0}
{"SMILES INPUT": "COc1cc(Nc2ncc(F)c(Nc3ccc4c(n3)NC(=O)C(C)(C)O4)n2)cc(OC)c1OC", "ASSAY METRIC": "drug sensitivity score", "RECORDED MEASUREMENT": 0}

* * *

test system: MFM-223; settings: 72 h

{"SMILES INPUT": "COC(=O)C[C@](O)(CCCC(C)(C)O)C(=O)O[C@@H]1C(OC)=C[C@]23CCCN2CCc2cc4c(cc2[C@H]13)OCO4", "DISPLAY UNIT": "nM", "EC50, CellTox Green": 63.7}
{"SMILES INPUT": "C[C@@]1(C(=O)Nc2ccc(F)nc2)CCCN1c1nc(Nc2cc(C3CC3)n[nH]2)c2cccn2n1", "DISPLAY UNIT": "nM", "EC50, CellTox Green": 587}
{"SMILES INPUT": "FC(F)c1nc2ccccc2n1-c1nc(N2CCOCC2)nc(N2CCOCC2)n1", "DISPLAY UNIT": "nM", "EC50, CellTox Green": 1780}
{"SMILES INPUT": "C#Cc1cccc(Nc2ncnc3cc(OC)c(OCCCCCCC(=O)NO)cc23)c1", "DISPLAY UNIT": "nM", "EC50, CellTox Green": 1600}

* * *

tested on: SK-BR-3; conditions: 72 h
ASSAY METRIC: EC50, CellTiter-Blue viability (nM)

{"SMILES INPUT": "COc1c(C)cnc(Cn2cnc3c(Cl)nc(N)nc32)c1C", "RECORDED MEASUREMENT": 28}
{"SMILES INPUT": "COC(=O)C[C@](O)(CCCC(C)(C)O)C(=O)O[C@@H]1C(OC)=C[C@]23CCCN2CCc2cc4c(cc2[C@H]13)OCO4", "RECORDED MEASUREMENT": 34.3}
{"SMILES INPUT": "CS(=O)(=O)CCNCc1ccc(-c2ccc3ncnc(Nc4ccc(OCc5cccc(F)c5)c(Cl)c4)c3c2)o1", "RECORDED MEASUREMENT": 40.7}
{"SMILES INPUT": "COc1ncc(-c2ccc3nccc(-c4ccnnc4)c3c2)cc1NS(=O)(=O)c1ccc(F)cc1F", "RECORDED MEASUREMENT": 3.24}
{"SMILES INPUT": "C[C@@H]1C=C2C(=O)O[C@@H]3CC[C@H](C1)[C@]23O", "RECORDED MEASUREMENT": 12600}
{"SMILES INPUT": "CC(=O)O[C@H]1C(=O)[C@@]2(C)[C@H]([C@H](OC(=O)c3ccccc3)[C@]3(O)C[C@H](OC(=O)[C@H](O)[C@@H](NC(=O)c4ccccc4)c4ccccc4)C(C)=C1C3(C)C)[C@]1(OC(C)=O)CO[C@@H]1C[C@@H]2O", "RECORDED MEASUREMENT": 2.93}

Source of measurements: the supplement of paper PMC4862054
